Test: NCI Yeast Anticancer Drug Screen. Data for the CLN2oe strain (AID 163);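 note: 0% = growth of vehicle-only control cultures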
Details: S. cerevisiae CLN2oe strain, at 33.0 µM, hits give high values
Method: Growth inhibition of yeast strains with defined genetic alterations is measured as a screen for potential anti-cancer activity. Selected strains with alterations in DNA damage repair or cell cycle control were exposed to compounds and growth inhibition was measured relative to vehicle treated controls. The strain used in this assay is CLN2oe
Compounds without any hit were thinned out: in the full panel of roughly 79,000, 15% have a hit.
Below, each entry is listed alongside its reported growth inhibition.

MOLECULE	growth inhibition (%)
CCOP1(=O)C=C(Sc2ccc([N+](=O)[O-])cc2[N+](=O)[O-])C(C)(C)O1 (stereo not given)	11
CC(=O)[O-].O=C([CH-]C(=O)c1ccccc1)c1ccccc1.O=C([CH-]C(=O)c1ccccc1)c1ccccc1.[Sm+3]	97
Cc1ccc(CNc2ccc(Br)cc2)cc1	34
CCOC(=O)C(NC(=O)CC)(N1CCN(c2cc3c(cc2F)c(=O)c(C(=O)O)cn3C2CC2)CC1)C(F)(F)F (stereo not given)	21
CCNc1ccc2c(c1)C(=O)N(OS(C)(=O)=O)C2=O	15
COC(=O)c1ccc2c(c1)Cc1ccccc1-2	-3
O=NN(CCCl)C(=O)NC1CCCCC1	-5
Oc1ccccc1N=Cc1ccc(Cl)cc1	1
Cc1cc(C)c(N2C(=O)CC(Sc3ccccc3N)C2=O)c(C)c1 (stereo not given)	14
OCCNCCOc1ccc(/C(=C(/Cl)c2ccccc2)c2ccccc2)cc1	99
Nc1nc(F)nc2c1ncn2C1OC(COP(=O)(O)O)C(O)C1O (stereo not given)	-5
CN(Cc1cnc2nc(N)nc(N)c2n1)c1ccc(C(=O)NC(CCC(=O)O)C(=O)O)c2ccccc12 (stereo not given)	7
Clc1nc(C(Cl)Cl)nc2sc3c(c12)CCCC3	46
CC(C)(C)c1ccc(O)c(C(c2ccc([N+](=O)[O-])cc2)c2cc(C(C)(C)C)ccc2O)c1	80
S=C(S)NCC1CCC(CNC(=S)S)CC1 (stereo not given)	18
COC(=O)c1n[nH]c(C)c1N=NN(C)CCC#N	99
NNC(=S)Nc1cccc2ccccc12	3
CCN(CC)N=Nc1c(C(N)=O)n[nH]c1C	0
CCN(CC)CCNC(=O)c1nn(-c2ccc(Cl)cc2)c2c1CCc1cc(OC)ccc1-2	5
Nc1ccc2c(=S)c3ccccc3[nH]c2c1	19
O=c1[nH]cc(/C=N\Nc2ccccc2)c(=O)[nH]1	43
Nc1ccc2c(c1)sc1ccccc12	-5
CC(=O)C1(O)Cc2c(O)c3c(c(O)c2C(OC2CC(N)C(O)C(C)O2)C1)C(=O)c1ccccc1C3=O (stereo not given)	98
Cc1cccc(/C=N/NC(=S)N(C)CCc2ccccn2)n1	98
Clc1c(Cl)c(Cl)c2c(nnn2C2CCCO2)c1Cl (stereo not given)	9
O=C(/C=C\c1ccc([N+](=O)[O-])o1)Nc1ccc(Cl)cc1	76
COc1ccc(N)c2c1C(=O)c1ccccc1C2=O	34
CC(=O)O[C@H]1C(=O)[C@@]2(C)[C@H]([C@H](OC(=O)c3ccccc3)[C@]3(O)C[C@H](OC(=O)[C@H](O)[C@@H](NC(=O)c4ccccc4)c4ccccc4)C(C)=C1C3(C)C)[C@]1(OC(C)=O)CO[C@@H]1C[C@@H]2O	-7
CN(C)Cc1cccc(CN(C)C)[c]1[Sn]([Br])([c]1ccccc1)[c]1ccccc1	30
CCn1ncc(N=O)c1N	43
CC(C)(C)[OH+][O-].[O-]c1ccc(Cl)cc1C=Nc1ccc(Cl)cc1[O-].[O]=[V]	11
CN(C)CCN1C(=O)c2cccc3cc([N+](=O)[O-])cc(c23)C1=O	36
CN(N=O)c1ccc(/C=C/c2ccnc3ccccc23)cc1	15
CCCCCCCCN1C(=O)c2ccccc2C1=O	-2
O=C1C=CC(=O)N1c1ccc2c(c1)OCO2	100
Cc1ccc(S(=O)(=O)Nc2ccc3c(c2)C(O)c2ccccc2-3)cc1 (stereo not given)	30
Clc1cc(Cc2ccc(N=C/C=C/c3ccccc3)c(Cl)c2)ccc1N=C/C=C\c1ccccc1	-31
CCN(CC)CC(O)c1cc(-c2ccc(Cl)cc2)nc2c(-c3ccccc3)cccc12 (stereo not given)	97
Oc1ccc(Br)cc1C=NC1CCCCC1	39
CCCCC(=O)c1c(O)nc2sccn2c1=O	78
O=Cc1coc2ccccc2c1=O	2
S=C1SCN(CCc2ccccc2)CN1CCc1ccccc1	45
O=c1[nH]c2ccccc2c2nc3ccccc3n12	40
CCCCCCCCCCCCCC(=O)OC(C)CCC1CCCO1 (stereo not given)	4
CC(=O)Oc1ccc(N2C(=O)C3c4[nH]c5ccccc5c4C4CCC(C(C)(C)C)CC4C3C2=O)cc1 (stereo not given)	97

###

Assay: NCI Yeast Anticancer Drug Screen. Data for the rad50 strain (AID 155);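 note: 0% = growth of vehicle-only cultures of the same strain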
Settings: S. cerevisiae rad50 strain growth inhibition; at 100.0 µM
About 79,000 compounds went through this panel and 15% of them were active in at least one assay; those are over-represented in the sample as a whole. Activity calls are given as the source filed them. Cut-off read from the data, not from the text of the source: active = growth inhibition above about 70%; inactive = the rest.
Outcomes: active, inactive

In [3]: df
Out[3]:
                                    compound  label_class
 0  CCC(NC(C)c1ccccc1)C(=O)c1ccc(OCc2ccccc2)c(OCc2ccccc2)c1 (stereo not drawn)     inactive
 1   COc1cc(/C=C/c2sc3ccccc3[n+]2C)ccc1N(C)C       active
 2                    O=Nn1c2ccccc2c2ccccc21       active
 3        COc1ccc(C(C#N)=C2C=CC(=NO)C=C2)cc1       active
 4  Cc1cc(Cl)ccc1NC(=O)/C(Cl)=C1/Sc2ccccc2NC1=O     inactive
 5                C=C1N(C)c2ccc(Cl)cc2C1(C)C       active
 6  Cc1ccc(Nc2c3c(c(C#N)c4nc5ccccc5n24)CCCC3)cc1       active
 7  CCOC(=O)C1=C(C)NC(C)=C(C(=O)OCC)C1c1ccccc1Cl       active
 8   N#C/C(=C1C=C/C(=N/O)c2ccccc2/1)c1ccccc1       active
 9    O=C1C=CC(=O)N1c1ccc(N2C(=O)C=CC2=O)cc1       active
10   COC(=O)/C=C1/OC(c2ccc(Br)cc2)=C(Br)C1=O     inactive
11  N#C/C(=C/N1C(=O)/C(=C/c2ccc([N+](=O)[O-])cc2)SC1=S)c1nc2ccccc2s1       active
12  CCCCC(CC)C(=O)Oc1ccc(C(=O)c2ccccc2)c(O)c1 (stereo not drawn)       active
13  CN(C)CCN1C(=O)c2cccc3cc([N+](=O)[O-])cc(c23)C1=O       active
14  O=C1OC2C(O)COC2(OCc2c[nH]c3ccccc23)C1O (stereo not drawn) (tested in a mixture with another compound)       active
15       CN(C)c1ccc(/C=C/c2ccnc3ccccc23)cc1N     inactive
16  CN(NC(=O)/C(=C/c1ccc(O)cc1)NC(=O)c1ccccc1)c1ccnc2cc(Cl)ccc12       active
17            Cc1cccc(/C=N\NC(=S)N2CCCCC2)n1       active
18              COc1ccc(SCc2cc(OC)ccc2OC)cc1     inactive
19  CN=C(N)N/N=C(\C)c1ccc2oc3ccc(/C(C)=N/NC(N)=NC)cc3c2c1       active
20              NC(=O)N1c2ccccc2C=Cc2ccccc21     inactive
21              Nc1ccc2c(=S)c3ccccc3[nH]c2c1     inactive
22    O=[N+]([O-])/C(C(Cl)=C(Cl)Cl)=C1/OCCS1       active
23             COC(=O)c1ccc2c(c1)Cc1ccccc1-2     inactive
24                      O=NN(CCCl)C(=O)NCCCl     inactive
25            O=C(/C=N/O)Nc1cc(Cl)c(Cl)cc1Cl     inactive
26                 O=C1C=CC(=O)N1c1ccc(I)cc1       active
27             OB(O)c1ccccc1C#Cc1ccccc1B(O)O       active

###

Assay: NCI Yeast Anticancer Drug Screen. Data for the wt1 strain (AID 149);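 note: 0% = growth of vehicle-treated wt1 cultures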
Conditions: S. cerevisiae wt1 strain (SPY 50644) growth inhibition; at 33.0 µM; hits give high values
Compounds without any hit were thinned out: in the full panel of roughly 79,000, 15% have a hit. Activity calls are given as the source filed them. No stated cut-off is given here; in the data, active means growth inhibition above about 70%; inactive means the rest.
Below, each entry is listed alongside its reported growth inhibition.
MEASUREMENT TYPE: growth inhibition

COMPOUND	MEASUREMENT TYPE	TEST VALUE
CC(=O)C1=C(O)C2(C)c3c(O)c(C)c(O)c(C(C)=O)c3OC2(Sc2ccccc2)CC1=O (stereo not given)	growth inhibition	66% (inactive)
N#CSC1CCCCNC1=O (stereo not given)	growth inhibition	46% (inactive)
N#Cc1sc2c(c1OC(=O)c1ccco1)c(=O)n(-c1ccccc1)c(=S)n2-c1ccccc1	growth inhibition	-1% (inactive)
CC(=O)O[C@H]1C(=O)[C@@]2(C)[C@H]([C@H](OC(=O)c3ccccc3)[C@]3(O)C[C@H](OC(=O)[C@H](O)[C@@H](NC(=O)c4ccccc4)c4ccccc4)C(C)=C1C3(C)C)[C@]1(OC(C)=O)CO[C@@H]1C[C@@H]2O	growth inhibition	-3% (inactive)
CC1C(C#N)(C#N)C(C#N)=C(N)C1(Cl)[N+](=O)[O-] (stereo not given)	growth inhibition	22% (inactive)
CCOC(=O)Nc1ccc2c(c1)Cc1ccccc1-2	growth inhibition	7% (inactive)
Cc1onc(-c2ccccc2Cl)c1C1=N/C(=C/c2cc(Cl)cc(Cl)c2O)C(=O)O1	growth inhibition	-16% (inactive)
CN(C)CC1CCCc2ccccc2C1=O (stereo not given)	growth inhibition	9% (inactive)
Nc1cc(S(N)(=O)=O)ccc1SSc1ccc(S(N)(=O)=O)cc1N	growth inhibition	12% (inactive)
C=C1N(C)c2ccc(Cl)cc2C1(C)C	growth inhibition	-21% (inactive)
CN(C)c1ccc(/C=C/c2ccnc3ccccc23)cc1N	growth inhibition	-15% (inactive)
CN[C@@H]1C[C@H]2O[C@@](C)([C@@H]1OC)n1c3ccccc3c3c4c(c5c6ccccc6n2c5c31)C(=O)N[C@@H]4O	growth inhibition	7% (inactive)
Cc1ccc(S(=O)(=O)N/N=C/C2(c3ccccc3)c3ccccc3-c3ccccc32)cc1	growth inhibition	87% (active)
CC(C)c1cccc(O)c(=O)c1	growth inhibition	38% (inactive)
O=C(O)c1ccccc1.[Ag]	growth inhibition	99% (active)
N#C/C(=C\c1ccccc1)c1ccccc1F	growth inhibition	1% (inactive)
CCC(=O)N(c1ccccc1)C(C)CN1CCC(O)(c2cccc(C(F)(F)F)c2)CC1 (stereo not given)	growth inhibition	22% (inactive)
O=[N+]([O-])c1cc(S(=O)(=O)Nc2ccccc2)ccc1Cl	growth inhibition	86% (active)
O=[N+]([O-])c1cccc2nc3ccccc3c(NCCc3cccc[n+]3[O-])c12	growth inhibition	27% (inactive)
COc1cc(CNc2ccc(C(C)C)cc2)cc(OC)c1OC	growth inhibition	-8% (inactive)
